# test.details: Intrinsic cytotoxicity, EZ4U assay, HEK293A
# Type: cell-based
# condition: human, HEK293A cells, compound alone
readout.label: CC50 at 3 days (µM)
Unit µM implied. Number only.

### Prompt Answer with reported CC50 at 3 days of CC1=CC[C@H](CCSc2nc(C34CC5CC(CC(C5)C3)C4)n[nH]2)C1(C)C [14a]
### Response 47

### Prompt Answer with reported CC50 at 3 days of CC1=CC[C@@H](CCSc2nc(C34CC5CC(CC(C5)C3)C4)n[nH]2)C1(C)C [14b]
### Response 50

### Prompt Answer with reported CC50 at 3 days of `CC1(C)[C@@H]2CC[C@@]1(C(=O)Nc1nnc(C34CC5CC(CC(C5)C3)C4)s1)C(=O)C2`
### Response 23
